Molecular target: human ErbB2, full length, on cells (human, UniProt P04626 23-1255)
Experiment: cell-based or functional assay
Consider the following binders and their measured % Inhibition @10 µg/ml, Heregulin-induced MCF7 cell proliferation readings.
// units = %; emit number, no label

• monoclonal antibody 1.100.1 (antibody, V domains shown, Fully human IgG (gamma/kappa) from a XenoMouse XM3B-3 hybridoma; constant regions not tied to it; also called 1.100.2; 1.100.3) VH: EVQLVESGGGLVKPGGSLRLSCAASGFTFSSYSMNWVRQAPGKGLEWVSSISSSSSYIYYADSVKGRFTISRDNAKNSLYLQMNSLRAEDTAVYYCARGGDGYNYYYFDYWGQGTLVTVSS VL: DIVMTQSPDSLAVSLGERATITCKSSQSVFFRSNNKNCLAWYQQRPGQPPNLLIYWASTRESGVPDRFSGSGCGTDFTLTISSLQAEDVAVYYCQQYFGSPFTFGPGTKVDIK = 95
• monoclonal antibody 1.18.1 (antibody, V domains shown, Fully human IgG (gamma/kappa) from a XenoMouse XM3B-3 hybridoma; constant regions not tied to it) VH: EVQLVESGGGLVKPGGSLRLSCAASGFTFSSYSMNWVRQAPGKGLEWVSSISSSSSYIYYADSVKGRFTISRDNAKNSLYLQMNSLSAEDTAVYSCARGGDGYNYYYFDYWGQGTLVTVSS VL: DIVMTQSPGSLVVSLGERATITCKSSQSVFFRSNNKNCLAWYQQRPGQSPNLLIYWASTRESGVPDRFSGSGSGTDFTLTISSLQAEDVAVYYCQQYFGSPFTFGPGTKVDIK = 94

The binder listed as monoclonal antibody 1.39 (antibody, V domains shown, Fully human IgG (gamma/kappa) from a XenoMouse XM3B-3 hybridoma; constant regions not tied to it; also called 1.39.1; 1.39.2) VH: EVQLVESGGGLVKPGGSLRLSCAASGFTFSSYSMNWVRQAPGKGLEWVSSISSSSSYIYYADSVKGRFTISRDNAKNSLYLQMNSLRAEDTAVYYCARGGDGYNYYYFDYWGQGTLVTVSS VL: DIVMTQSPDSLAVSLGERATITCKSSQSVFFRSNNKNCLAWYQQRPGQPPNLLIYWASSRESGVPDRFSGSGSGTDFALTISSLQTEDVAVYYCQQYFGSPFTFGPGTKVDIK shows % Inhibition @10 µg/ml, Heregulin-induced MCF7 cell proliferation equal to 89
